Here, each record is paired with measured GI50 data.
system: SW-620 colon; experiment: NCI tumour cell line growth inhibition, 48 h

Worked cases, answers included:
COc1ccc(C(C)=O)cc1N1C(=O)C2C(C1=O)C1(c3ccccc3)C(=O)C2(c2ccccc2)C(c2ccc(C)cc2)=C1c1ccc(C)cc1 (stereo not given)    > 100 µM
COc1ccc(-n2cc(-c3cc(OC)c(OC)c(OC)c3)c(C(=O)C(F)(F)F)c2C)cc1    > 100 µM
C=C(CNCc1ccccc1)c1ccc(C(=O)Nc2ccccc2N)cc1    8.5 µM
COc1cc2nc(-c3ccc(Cl)cc3)cc(OCCCN3CCCCC3)c2cc1OC    3.09 µM

// below: GI50 requested for another compound
Supply recorded GI50 for CCCCCCCCCCCCCC1=NC(C)(C)CN1C(C)C here. 1.58 µM
